Source: a melting point compilation (Tetko et al.; mined from patent text by program, amines drawn as free bases though some values may be those of a salt)

Reported melting point by item:

Solved entries:
* O=C(O)/C=C\C=C(c1ccccc1F)c1ccccc1F | 147 to 148 °C
* N#CC(C(=O)C(=O)C(C#N)c1ccc(Cl)cc1)c1ccc(Cl)cc1 (centres undefined) | 255 °C
* C=CCS(=O)(=O)c1ccc(NC(C)=O)cc1 | 116 to 118 °C

Proceed to the following item.
INPUT: Output measured melting point for this item: Cc1ccc(Sc2cncc3sccc23)cc1
OUTPUT: 94 to 95 °C

* * *

endpoint: melting point

Solved entries:
* NC(=O)c1nnc2n1-c1ccc(Cl)cc1C(c1ccccc1)=NC2 | 285 to 289 °C
* Cc1cccc(C2=C(c3ccc(S(C)(=O)=O)cc3)CC(CN(C)C)C2O)c1 (stereo not given) | 165 to 167 °C
* Cc1cc(N=CN(C)C)c(C)cc1O | 212 °C
* CC1=NOC(c2c(S(C)(=O)=O)ccc(C(=O)C3=C(O)CCCC3=O)c2C)C1 (stereo not given) | 135 to 140 °C
* COP(=S)(OC)Oc1nc(F)c(Cl)cc1Cl | < 20 °C
* CCCCc1nn(Cc2ccccc2C(=O)OC)c(=O)n1Cc1ccc(-c2ccccc2-c2nnn[nH]2)cc1 | 79 to 80 °C
* CSc1nn(C(C)(C)C)c(=O)c(Cl)c1C1C=CC(C(C)(C)C)CC1 (stereo not given) | 82 to 84 °C
* CC(C)n1nc(-c2sc(NC(=O)CN(C)CCc3ccccn3)nc2-c2ccccc2)ccc1=O | 94 to 96 °C

INPUT: Output measured melting point for this item: CN(C)C(=O)CC1(O)C(=O)Nc2ccc(I)cc21 (stereo not given)
OUTPUT: 246 °C

INPUT: Output measured melting point for this item: NS(=O)(=O)c1cccc(-c2cccc(-c3nc(-c4ccc(C(F)(F)F)c(OCC(F)(F)F)c4)cc(C(F)(F)F)n3)c2)c1
OUTPUT: 188 °C
